Reference source: paper PMC4048319

Biological target: PfNMT (Plasmodium falciparum, UniProt Q9U419)
Sequence (Q9U419 1-410): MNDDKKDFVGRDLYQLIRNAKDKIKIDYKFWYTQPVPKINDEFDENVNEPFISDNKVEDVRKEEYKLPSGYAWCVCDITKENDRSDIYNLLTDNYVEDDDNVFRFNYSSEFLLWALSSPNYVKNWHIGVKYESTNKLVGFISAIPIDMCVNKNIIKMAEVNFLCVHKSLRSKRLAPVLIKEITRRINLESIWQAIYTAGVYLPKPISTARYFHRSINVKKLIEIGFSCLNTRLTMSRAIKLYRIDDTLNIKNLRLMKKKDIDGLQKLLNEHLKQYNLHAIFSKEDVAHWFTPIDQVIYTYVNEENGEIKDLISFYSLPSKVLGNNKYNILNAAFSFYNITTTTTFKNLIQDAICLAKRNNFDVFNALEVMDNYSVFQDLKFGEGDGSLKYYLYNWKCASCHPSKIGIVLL
Assay: LELP (cLogP/LE, PfNMT LE)
experimental.endpoint: LELP

>>> df
                                   compound  reading
0  c1ccc(Cc2nnc(-c3sc4ccccc4c3OC3CCNCC3)o2)cc1 [20a]      9.5

(1) COc1cccc(Cc2noc(-c3sc4ccccc4c3OC3CCNCC3)n2)c1
(2) Cc1n[nH]c(C)c1CCc1nnc(-c2sc3ccccc3c2OC2CCNCC2)o1 [35a]
Query: Hi team, can someone confirm which has the larger LELP: 1 or 2 ? Thanks. Indicate your choice by writing its label.
Result: 1

(I) COc1cccc(Cc2nnc(-c3sc4ccccc4c3OC3CCNCC3)o2)c1 [20b]
(II) Clc1cccc(Cc2noc(-c3sc4ccccc4c3OC3CCNCC3)n2)c1
Query: Compare the recorded LELP of I and II ; state which is larger. In your reply, give the label of the chosen option.
Result: II
(II: 15.3, I: 9.2)

###

Biological target: PfNMT (Plasmodium falciparum, UniProt Q9U419)
Sequence (Q9U419 1-410): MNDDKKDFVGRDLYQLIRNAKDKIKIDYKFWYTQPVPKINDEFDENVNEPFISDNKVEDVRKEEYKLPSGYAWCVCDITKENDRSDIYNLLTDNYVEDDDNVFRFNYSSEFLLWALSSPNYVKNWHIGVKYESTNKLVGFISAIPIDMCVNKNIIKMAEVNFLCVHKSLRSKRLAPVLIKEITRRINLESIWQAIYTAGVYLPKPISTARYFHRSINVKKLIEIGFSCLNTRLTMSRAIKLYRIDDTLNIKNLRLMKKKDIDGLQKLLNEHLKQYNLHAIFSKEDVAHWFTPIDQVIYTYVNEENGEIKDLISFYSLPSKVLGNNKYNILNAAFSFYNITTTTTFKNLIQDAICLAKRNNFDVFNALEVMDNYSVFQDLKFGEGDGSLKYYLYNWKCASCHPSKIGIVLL
Experiment: LELP (cLogP/LE, PfNMT LE)
experimental.endpoint: LELP

Completed entries (count: 2):
>>> print(df.to_string())
                                   compound                               measured_on  reading
0  c1ccc(C2(c3nnc(-c4sc5ccccc5c4OC4CCNCC4)o3)CC2)cc1 [23c]  PfNMT (Plasmodium falciparum, UniProt Q9U419)     12.2
1  c1ccc(Cc2nc(-c3sc4ccccc4c3OC3CCNCC3)no2)cc1 [14a]  PfNMT (Plasmodium falciparum, UniProt Q9U419)     12.8

(A) c1ccc(Cc2n[nH]c(-c3sc4ccccc4c3OC3CCNCC3)n2)cc1 [compound 18]
(B) FC(F)(c1ccccc1)c1nnc(-c2sc3ccccc3c2OC2CCNCC2)o1 [23d]
Query: Lower value of LELP belongs to which: A or B ? Write down the label of the entry you select.
Result: A
